target: p50p50 homodimer (Homo sapiens, UniProt P19838 7-356); assay: protein binding microarray; high values mean tight binding; settings: dsDNA, one strand shown
Sequence (P19838 7-356): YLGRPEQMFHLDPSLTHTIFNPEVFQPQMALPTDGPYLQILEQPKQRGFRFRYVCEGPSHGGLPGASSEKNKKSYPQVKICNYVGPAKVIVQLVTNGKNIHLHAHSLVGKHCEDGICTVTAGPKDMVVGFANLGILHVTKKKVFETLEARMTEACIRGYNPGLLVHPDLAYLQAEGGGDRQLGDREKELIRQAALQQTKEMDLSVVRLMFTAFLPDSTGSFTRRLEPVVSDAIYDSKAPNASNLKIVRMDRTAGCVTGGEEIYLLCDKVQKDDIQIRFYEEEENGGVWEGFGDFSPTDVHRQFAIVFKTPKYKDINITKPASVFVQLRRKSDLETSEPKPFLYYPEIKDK
Quantity Kind: binding signal (z-score)
Write the answer as a number in z-score, unit excluded.

## Input Specify measured binding signal for GGGTAGGCCCC .
## Output 0.314

## Input Specify measured binding signal for CAGTGAACCCC .
## Output -0.483

## Input Specify measured binding signal for AGGTGTGCCCT .
## Output -1.63

## Input Specify measured binding signal for CGGTACTCCCT .
## Output 0.837

## Input Specify measured binding signal for CAATTCCTCCT .
## Output -1.06

## Input Specify measured binding signal for GAATTATTCCC .
## Output 0.532

## Input Specify measured binding signal for GAGTTCTTCCT .
## Output -1.52

## Input Specify measured binding signal for GGGGGCGCCCT .
## Output 0.922

## Input Specify measured binding signal for AAAAGCGTCCC .
## Output 0.282

## Input Specify measured binding signal for CGGGTGCCCCC .
## Output 0.777
